Endpoint summary: pKi, system: Thromboxane A2 receptor (Homo sapiens, UniProt P21731), multiple sources combined.
# System: Thromboxane A2 receptor (Homo sapiens, UniProt P21731)
# Sequence (P21731 whole entry): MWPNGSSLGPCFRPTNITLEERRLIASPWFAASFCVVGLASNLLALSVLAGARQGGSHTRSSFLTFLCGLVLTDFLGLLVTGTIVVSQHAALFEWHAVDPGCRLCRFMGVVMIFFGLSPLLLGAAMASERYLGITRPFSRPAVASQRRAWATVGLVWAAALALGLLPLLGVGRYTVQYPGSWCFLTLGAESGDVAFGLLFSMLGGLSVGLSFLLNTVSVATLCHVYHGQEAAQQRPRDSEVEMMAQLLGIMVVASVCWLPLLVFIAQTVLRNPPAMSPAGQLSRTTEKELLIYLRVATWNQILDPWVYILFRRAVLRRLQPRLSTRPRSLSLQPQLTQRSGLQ
Numbers only, as −log10 of the molar value.

- Compound: "CC(C)(CC(=O)O)Cc1nc2ccccc2n1Cc1ccc(Br)cc1F"
  Property: "pKi"
  Reported Measurement: 7.96
- Compound: "O=C(O)Cn1c2c(c3ccccc31)C[C@H](NS(=O)(=O)c1ccc(F)cc1)CC2"
  Property: "pKi"
  Reported Measurement: 6.27
- Compound: "CS(=O)(=O)c1ccc2c(c1)c1c(n2Cc2ccc(Cl)cc2)C(CC(=O)O)CC1 (stereo not given)"
  Property: "pKi"
  Reported Measurement: 5.68
- Compound: "CC(C)(CC(=O)O)Cc1nc2cc(Cl)ccc2n1Cc1ccc(Cl)c(Cl)c1"
  Property: "pKi"
  Reported Measurement: 7.92

*Q* # lookup: pKi of CSc1ccc(Cn2c(CC(C)(C)CC(=O)O)nc3cc(Cl)ccc32)cc1
*A* 8.22

---

Target sequence: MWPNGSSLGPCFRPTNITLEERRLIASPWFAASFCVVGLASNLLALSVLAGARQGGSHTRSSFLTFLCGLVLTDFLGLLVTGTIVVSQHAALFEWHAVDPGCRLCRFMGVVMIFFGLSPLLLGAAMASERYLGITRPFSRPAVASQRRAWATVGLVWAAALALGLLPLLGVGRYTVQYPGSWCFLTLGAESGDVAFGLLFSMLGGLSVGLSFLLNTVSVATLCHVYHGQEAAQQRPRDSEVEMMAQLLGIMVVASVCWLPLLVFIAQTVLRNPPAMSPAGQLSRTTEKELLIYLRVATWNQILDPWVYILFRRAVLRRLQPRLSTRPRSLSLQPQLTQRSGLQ
Endpoint summary: log10(Ki), system: the protein given by its sequence, multiple sources combined.
Log10 applied to Ki; unit prior to transform: nM.

Completed entries (count: 2):
- Compound: "CS(=O)(=O)c1cccc2c3c(n(Cc4ccc(Cl)cc4)c12)C(CC(=O)O)CCC3 (stereo not drawn)"
  Property: "log10(Ki)"
  Reported Measurement: 0.71
- Compound: "COc1cccc(OC)c1C1(C(=O)NS(=O)(=O)Cc2ccc(N3Cc4c(c(OCC(F)(F)F)c5cccnc5c4OCC(F)(F)F)C3=O)c(C)c2)CC1"
  Property: "log10(Ki)"
  Reported Measurement: 1.59

Provide each entry's log10(Ki) from the list below.
1. Cc1c(C2c3ccccc3S(=O)(=O)N2CCOc2ccc(Cl)cc2)c2ccccc2n1CC(=O)O (racemic)
2. O=C(O)CC1CCCc2c1n(Cc1ccc(Cl)cc1)c1ccccc21 (stereo not drawn)
3. O=C([O-])c1cccc(Cc2cc(Cl)ccc2OCc2ccc(Cl)cc2F)n1.[Na+]

*A*
[3.53, 0.38, 1.00]

---

Endpoint summary: Ki, system: Thromboxane A2 receptor (Homo sapiens, UniProt P21731), multiple sources combined.

Completed entries (count: 4):
- Chemical Smiles: "CC(SCCc1coc2c(OCC(=O)O)cccc12)(c1ccccc1)c1ccccc1"
  Reported Measurement: "26 nM"
- Chemical Smiles: "O=C(O)CCCCCNC(=O)[C@H](CCCNC(=O)OCc1ccccc1)NC(=O)c1cc2ccccc2o1"
  Reported Measurement: "> 10000 nM"
- Chemical Smiles: "Cc1cc2c(CC(=O)O)cccc2n1C(=O)c1ccc(OC[C@@H]2CN(C)c3ccccc3O2)cc1"
  Reported Measurement: "260 nM"
- Chemical Smiles: "CC(SCCc1c(CCO)oc2c(OCC(=O)O)cccc12)(c1ccccc1)c1ccccc1"
  Reported Measurement: "78 nM"

*Q* # lookup: Ki of C[C@H](NC(=O)c1cscc1Cc1cccc(Cl)c1)c1ccc(C(=O)O)cc1
*A* > 7280 nM

---

Endpoint summary: Ki, system: Thromboxane A2 receptor (Homo sapiens, UniProt P21731), multiple sources combined.

Completed entries (count: 5):
- Molecule: "CC(C)(CC(=O)O)Cc1nc2cc(Cl)cnc2n1Cc1ccc(Cl)cc1"
  Ki: "21 nM"
- Molecule: "CS(=O)(=O)c1cc(Br)c2c(c1)c1c(n2Cc2cccc(OC(F)(F)F)c2)C(CC(=O)O)CC1 (stereo not given)"
  Ki: "260 nM"
- Molecule: "CC(C)c1cccc2c3c(n(Cc4ccc(Cl)cc4)c12)C(CC(=O)O)CCC3 (stereo not given)"
  Ki: "9.1 nM"
- Molecule: "O=C(O)CC1CCCc2c1n(Cc1ccc(Cl)cc1)c1c(Br)cccc21 (stereo not given)"
  Ki: "2.2 nM"
- Molecule: "C[C@H](NC(=O)c1cc(F)cc2ccn(Cc3cccc(Cl)c3)c12)c1ccc(C(=O)O)cc1"
  Ki: "≥ 504 nM"

Provide each entry's Ki from the list below.
1. Cc1sc(C)c(C(=O)NC2(c3ccc(C(=O)O)cc3)CC2)c1Cc1ccc(C(F)(F)F)cc1
2. CCc1cccc(NC(=O)Nc2cccn(Cc3ccccc3Cl)c2=O)c1
3. C[C@@H](C(=O)N(C)[C@@H]1CCc2c(CC(=O)O)c3cccnc3n2C1)c1ccc(F)cc1
4. CN(C(=O)C1(c2ccc(F)cc2)CCOCC1)[C@@H]1CCc2c(CC(=O)O)c3cccnc3n2C1
5. N#CC(O)c1cncc(-c2sccc2-c2cc(Cl)ccc2OCc2ccccc2)c1 (stereo not given)

*A*
> 6800 nM
> 10000 nM
> 71000 nM
> 7200 nM
360 nM

---

Endpoint summary: pKi, system: the protein given by its sequence, multiple sources combined.
Target chain: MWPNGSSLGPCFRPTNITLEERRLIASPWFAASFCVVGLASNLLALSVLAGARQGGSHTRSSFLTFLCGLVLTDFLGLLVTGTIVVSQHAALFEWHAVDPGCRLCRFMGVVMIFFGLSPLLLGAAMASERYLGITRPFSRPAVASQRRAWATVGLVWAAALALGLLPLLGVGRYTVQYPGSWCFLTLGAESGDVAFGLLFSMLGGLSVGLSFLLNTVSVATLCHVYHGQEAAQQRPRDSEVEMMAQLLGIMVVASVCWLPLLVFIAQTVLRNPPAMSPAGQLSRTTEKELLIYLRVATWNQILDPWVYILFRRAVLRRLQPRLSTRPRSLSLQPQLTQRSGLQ
Numbers only, as −log10 of the molar value.

Completed entries (count: 4):
- Molecule: "CSc1cccc2c3c(n(Cc4ccc(Cl)cc4)c12)C(CC(=O)O)CCC3 (stereo not drawn)"
  pKi: 8.59
- Molecule: "CS(=O)(=O)c1cc(C#N)c2c(c1)c1c(n2Cc2ccc(Cl)cc2)C(CC(=O)O)CC1 (stereo not drawn)"
  pKi: 5.96
- Molecule: "O=C(O)CC1CCCc2c1n(Cc1ccc(Cl)cc1)c1c(F)cc(F)cc21 (stereo not drawn)"
  pKi: 8.77
- Molecule: "CCC(CC)(CC(=O)O)Cc1nc2ccccc2n1Cc1ccc(Cl)cc1"
  pKi: 6.80

Provide each entry's pKi from the list below.
1. O=C(O)[C@H]1CC[C@@H]1c1nc2cc(F)ccc2n1Cc1ccc(Cl)cc1
2. CC(C)(CC(=O)O)Cc1nc2cc(F)ccc2n1Cc1ccc(Cl)cc1
3. Cc1c(C2c3ccccc3S(=O)(=O)N2CCOc2ccccc2)c2ccccc2n1CC(=O)O (racemic)
4. CS(=O)(=O)c1cc(Br)c2c(c1)c1c(n2Cc2ccc(Cl)cc2)C(CC(=O)O)CC1 (stereo not drawn)
5. CC(C)COc1ccc(Cl)cc1-c1ccccc1-c1cccc(C(=O)[O-])n1.[Na+]

*A*
6.09
8.11
5.11
6.70
6.50

---

Endpoint summary: pKi, system: Thromboxane A2 receptor (Homo sapiens), multiple sources combined.
# System: Thromboxane A2 receptor (Homo sapiens)
# Sequence (P21731 whole entry): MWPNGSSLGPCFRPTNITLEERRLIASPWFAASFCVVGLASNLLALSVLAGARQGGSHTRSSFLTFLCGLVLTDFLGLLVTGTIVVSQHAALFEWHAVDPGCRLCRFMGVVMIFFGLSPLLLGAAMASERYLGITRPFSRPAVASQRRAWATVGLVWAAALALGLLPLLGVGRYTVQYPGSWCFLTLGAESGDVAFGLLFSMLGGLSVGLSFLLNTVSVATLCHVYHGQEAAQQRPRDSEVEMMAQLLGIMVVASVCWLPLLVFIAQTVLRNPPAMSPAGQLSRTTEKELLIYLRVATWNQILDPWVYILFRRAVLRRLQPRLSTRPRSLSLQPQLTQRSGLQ
pKi: −log10 of the molar value.
// label = MET if pKi is not less than 7, otherwise NOT MET

Completed entries (count: 3):
- Compound: "CC(C)(Sc1nc2cc(F)ccc2n1Cc1ccc(Cl)cc1)C(=O)O"
  Assigned Label: "NOT MET"
- Compound: "O=C(O)CC1CCCc2c1n(Cc1ccc(Cl)cc1)c1ccc(F)cc21 (centres undefined)"
  Assigned Label: "MET"
- Compound: "CSc1ccc(Cn2c(CC(C)(C)CC(=O)O)nc3cc(Cl)cnc32)cc1"
  Assigned Label: "MET"

*Q* Check this compound for pKi at or above 7: CC(C)(CC(=O)O)Cc1nc2cccnc2n1Cc1ccc(Cl)cc1
*A* MET

*Q* Check this compound for pKi at or above 7: O=C(O)COc1ccc(Cl)cc1C1CCCCC1
*A* NOT MET

*Q* Check this compound for pKi at or above 7: OC(c1cncc(-c2sccc2-c2cc(Cl)ccc2OCc2ccccc2)c1)(C(F)(F)F)C(F)(F)F
*A* NOT MET

*Q* Check this compound for pKi at or above 7: CN(C(=O)C(C)(C)c1ccc(F)cc1)[C@@H]1CCc2c(CC(=O)O)c3cccnc3n2C1
*A* NOT MET

*Q* Check this compound for pKi at or above 7: CN(C(=O)C1(c2ccc(F)cc2)CC1(C)C)[C@@H]1CCc2c(CC(=O)O)c3cccnc3n2C1 (some centres undefined)
*A* NOT MET

*Q* Check this compound for pKi at or above 7: CC(NC(=O)c1cccc(-c2sccc2-c2cc(Cl)ccc2OCc2ccccc2)c1)c1cccnc1 (centres undefined)
*A* NOT MET
